Several reports have described Ki for Progesterone receptor (Homo sapiens, UniProt P06401); a selection of those results is presented here.
Recorded Endpoint: Ki (nM)

Use the examples below as a reference point.
Ask | Consider the compound COc1ccc(CNC(=O)NC(=O)C(C)(C)[C@@H]2c3ccc(-c4ccc(C(=O)N5CCOCC5)cc4)nc3Oc3c(F)cccc32)cc1 and give its measured Ki.
Reply | 623

Ask | What would you report for CC1=CC(C)(C)Nc2cc3c(cc21)-c1ccccc1C3O (stereo not drawn) ?
Reply | 483

Ask | Please give the result for CC1=CC(C)(C)Nc2ccc3c(c21)/C(=C/c1ccccc1)Oc1ccccc1-3 too.
Reply | 4.9

Ask | Do the same for C[C@@](c1ccc(F)cc1F)(c1c[nH]c2c(NS(C)(=O)=O)cccc12)C1CC1 please
Reply | 464

a. CC(C)(O)c1ccc(-c2ccc3c(n2)Oc2c(F)cccc2[C@@H]3C(C)(C)C(=O)NC(N)=O)cn1
b. CC1=CC(C)(C)Nc2ccc3c(c21)C(c1ccc(F)cc1)Oc1ccccc1-3 (stereo not drawn)
Ask | Between item a and item b , which reported Ki is smaller? Write down the label of the entry you select.
Reply | b
(b: 5.3 nM, a: 106 nM)

P. CC(C)(C(=O)NC(=O)C1CC1)[C@@H]1c2ccc(-c3ccc(C(=O)N4CCOCC4)cc3)nc2Oc2c(F)cccc21
Q. CC1=CC(C)(C)Nc2ccc3c(c21)Cc1cc([N+](=O)[O-])ccc1-3
Ask | # min-compare on Ki between P and Q Answer by quoting the chosen item's label.
Reply | Q
(Q: 57 nM, P: 2040 nM)

I. O=c1[nH]c2cc(/C=C3\c4ccccc4COc4cc(F)ccc43)ccc2n1[C@H]1C[C@H]2COCCN2C1
II. O=S(=O)(c1ccc(Cl)cc1)N1N=C(c2ccc(Cl)c(Cl)c2)CC1c1ccccc1 (stereo not drawn)
III. CN(C)c1ccc(C2CN(S(=O)(=O)c3ccc(Cl)cc3)N=C2c2ccc(Cl)c(Cl)c2)cc1 (stereo not drawn)
Ask | Output the entries ranked by Ki from maximum down to minimum. Form entry: labels listed in requested order.
Reply | II, I, III

P. COc1ccccc1-c1c[nH]c2c(NS(C)(=O)=O)cccc12
Q. COc1c(O)ccc2c1-c1ccc3c(c1/C(=C/c1sccc1/C(C)=N/O)O2)C(C)=CC(C)(C)N3
Ask | Param pair: P , Q . Output: the one whose Ki is numerically greater. Bench note: the answer is the label of the chosen record.
Reply | Q
(Q: 790 nM, P: 86 nM)
